Each entry below carries its reported melting point.

Completed entries (count: 2):
SMILES_DATA: COc1ccc(Cl)c(Nc2c(C#N)cnc3c2C=C2N=CN=C2C3)c1
melting point: 296 to 298 °C
//
SMILES_DATA: CCc1c(-c2ccc(OCc3ccccc3)cc2)c2ccc3ccc(CO)c1n32
melting point: 99 to 102 °C

Moving on to another compound below.
Record COc1cc2cc3c4c(cccc4c2cc1OC)C(=O)OC3=O , field melting point: > 324 °C

====

MEASURED_ENDPOINT: melting point

COMPOUND: CS(=O)(=O)c1ccccc1S
melting point: 57 °C

COMPOUND: CCOC(=O)CCc1cc(CCC(=O)O)cc(Cc2cccnc2)c1
melting point: 62 to 64 °C

COMPOUND: CCNC1CCN(c2c(F)cc3c(=O)c(C(=O)O)cn(C4CC4)c3c2F)C1 (stereo not given)
melting point: 236 to 238 °C

COMPOUND: COc1cccc([C@@H](c2ccc(C3CN(CCC(=O)O)C3)cc2)N2C[C@@H](C)N(Cc3ccccc3)C[C@@H]2C)c1
melting point: 93 to 96 °C

COMPOUND: Cc1c(C(F)(F)F)cnn(-c2cc(OCC3CC3)c(Cl)cc2F)c1=O
melting point: 82.3 °C

Record C#CC(C)Oc1cc(Cl)ccc1-n1c(=O)cc(C(F)(F)F)n(C)c1=O (stereo not given) . Reported melting point: 96 to 99 °C

Record O=C(c1cccc(F)c1)N1CCc2cc(S(=O)(=O)N3CC(c4ccccc4)NC3=O)ccc21 (stereo not given) . Reported melting point: 202 °C
